meta.source: patent US7759339B2

- System under test: 11b-HSD1 (Homo sapiens, UniProt P28845)
- Sequence (P28845 24-292): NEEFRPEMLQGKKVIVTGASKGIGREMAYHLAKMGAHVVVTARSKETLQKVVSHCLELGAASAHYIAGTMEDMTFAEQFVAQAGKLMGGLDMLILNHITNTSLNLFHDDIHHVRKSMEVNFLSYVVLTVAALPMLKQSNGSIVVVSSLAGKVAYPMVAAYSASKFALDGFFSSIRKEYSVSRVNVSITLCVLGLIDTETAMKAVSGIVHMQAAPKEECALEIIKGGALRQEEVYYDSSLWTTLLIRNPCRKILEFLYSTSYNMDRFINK
Readout kind: pIC50
Note on pIC50: it is the negative log10 of concentration, concentration in mol/L.

(Q) So what pIC50 did CCN(CC)C(=O)Cc1csc(NS(=O)(=O)c2cccc(Cl)c2C)n1 [BVT14225] get with 11b-HSD1 (Homo sapiens, UniProt P28845)?
(A) 6.30
